Target: APP-Avi-soluble human LOX-1(61-273) (human, UniProt P78380 61-273)
Assay: SET, IgG vs soluble human LOX-1
Procedure: Affinity determination for anti-LOX-1 IgGs using Solution Equilibrium Titration (SET) was basically performed as described in the literature (Friguet et al., 1985 J Immunol Methods 77: 305-319). […] On a pre-blocked MSD plate (Meso Scale Discovery, catalog no. L21SA) biotinylated human or cynomolgus monkey soluble LOX-1 protein was immobilized and washed afterwards. […] The KD values were determined by fitting the data to the following equation: […]
Reported metric: Kd (pM)
// return numeric value only (unit: pM, not printed)

Solved cases (2 shown):
{"Binder": "MOR021439 (antibody, V domains shown, IgG (human IgG1f LALA); parent MOR20159 with the printed LCDR3 stretch exchanged) VH: QVQLVQSGAEVKKPGSSVKVSCKASGGTFSDYAISWVRQAPGQGLEWMGGIVPIVGTANYAQKFQGRVTITADESTSTAYMELSSLRSEDTAVYYCARDSSTSYYYYFDYWGQGTLVTVSS VL: DIQMTQSPSSLSASVGDRVTITCRASQDINSWLAWYQQKPGKAPKLLIYQASNLQSGVPSRFSGSGSGTDFTLTISSLQPEDFATYYCQQMHRFPMTFGQGTKVEIKR", "Units text": "pM", "Kd": 3}
{"Binder": "MOR22034 (antibody, human IgG1, kappa, L234A L235A, V domains shown, Human IgG1f LALA; also called MOR022034; MOR20234) VH: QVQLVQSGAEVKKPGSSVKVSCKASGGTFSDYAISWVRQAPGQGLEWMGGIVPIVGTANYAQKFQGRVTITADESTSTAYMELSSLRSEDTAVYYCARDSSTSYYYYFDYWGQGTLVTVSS VL: DIQMTQSPSSLSASVGDRVTITCRASQDISSWLAWYQQKPGKAPKLLIYQASNLQSGVPSRFSGSGSGTDFTLTISSLQPEDFATYYCQQMWQFPITFGQGTKVEIKR", "Units text": "pM", "Kd": 5}

Turning to the following binder.
Look at this binder and give its reported Kd. MOR021470 (antibody, V domains shown, IgG (human IgG1f LALA); parent MOR20144 with the printed HCDR2 stretch exchanged) VH: QVQLLESGGGLVQPGGSLRLSCAASGFTFSDYALHWVRQAPGKGLEWVSVISYAGAFTYYADSVKGRFTISRDNSKNTLYLQMNSLRAEDTAVYYCARSPGLTSYHDSWGQGTLVTVSS VL: DIVLTQPPSVSGAPGQRVTISCSGSSSNIGSNYVSWYQQLPGTAPKLLIHSNSHRPSGVPDRFSGSKSGTSASLAITGLQAEDEADYYCQSWDYESERVVFGGGTKLTVLG
0.5
